target: bovine Estrogen Receptor (ER), ESR1 (gene 407238) (UniProt P49884); assay: NVS_NR_bER: NovaScreen (NVS) Nuclear Receptor Binding Assay for bovine Estrogen Receptor (ER) (AID 2283345);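 further: actives lower the bound radioligand count which means they displace the ER ligand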
Sequence (P49884 whole entry, looked up): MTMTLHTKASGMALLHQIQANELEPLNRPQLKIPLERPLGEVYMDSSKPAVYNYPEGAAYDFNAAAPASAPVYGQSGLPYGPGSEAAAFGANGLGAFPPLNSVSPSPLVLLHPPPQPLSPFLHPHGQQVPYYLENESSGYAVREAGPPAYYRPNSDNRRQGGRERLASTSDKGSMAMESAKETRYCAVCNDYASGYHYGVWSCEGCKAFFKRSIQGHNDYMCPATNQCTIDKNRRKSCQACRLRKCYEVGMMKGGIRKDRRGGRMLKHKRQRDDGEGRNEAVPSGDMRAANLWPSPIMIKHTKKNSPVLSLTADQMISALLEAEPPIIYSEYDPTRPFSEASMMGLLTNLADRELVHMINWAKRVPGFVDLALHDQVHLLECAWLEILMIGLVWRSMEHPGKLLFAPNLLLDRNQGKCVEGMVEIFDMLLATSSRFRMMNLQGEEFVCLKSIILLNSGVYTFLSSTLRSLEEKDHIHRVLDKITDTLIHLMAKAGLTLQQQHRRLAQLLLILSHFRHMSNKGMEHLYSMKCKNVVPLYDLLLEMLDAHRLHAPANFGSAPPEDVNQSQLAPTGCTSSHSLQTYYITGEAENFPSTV
Inconclusive results are not listed. The source made the active and inactive calls. How the source made its calls: active means hit-call score of the fitted dose curve at least 0.9, where 1 is the maximum; inconclusive means response in the unintended direction; inactive means score below 0.9.
Outcome codes: active, inactive

* O=C1C=CC(=O)N1c1ccc(Cc2ccc(N3C(=O)C=CC3=O)cc2)cc1 | inactive
* CCCCCCCCCc1ccc(OCCO)cc1 | inactive
* CCc1cc(Cc2cc(CC)c(N)c(CC)c2)cc(CC)c1N | inactive
* Cc1cc(O)c(C(C)(C)C)cc1C(C)(C)C | inactive
* C[C@]12CC[C@H]3C(=CCc4cc(O)ccc43)[C@@H]1CCC2=O | active
* CCCCCCCCCCCCCC[P+](CCCC)(CCCC)CCCC | active
* CCCCCCCC/C=C\CCCCCCCC(=O)N(C)CC(=O)O | inactive
